Reference source for all entries: ChEMBL document CHEMBL1201862

Let's look at some compounds and their measured EC50.
- Assay Name: luciferase reporter signal suppression in cells – H4 neuroglioma cells, luminescence, dose response (AID 1990)
- Assay type: functional, cell-based
Activity calls are given as the source filed them.

Query string: So what does the record say about EC50 for `CC[n+]1c(/C=C/C=C/c2ccc(N(C)C)cc2)sc2ccccc21.[O-][Cl+3]([O-])([O-])[O-]` ?
Result string: 43.6 µM (active)

Query string: So what does the record say about EC50 for COc1ccc(CNC(=O)C(C)Sc2nc3ccccc3c(=O)n2CCCN2CCOCC2)cc1 (centres undefined) ?
Result string: 23.9 µM (active)

Query string: So what does the record say about EC50 for `Cc1cc(C)n(-c2nc(NCCN(C)C)c3c4c(sc3n2)CCCC4)n1` ?
Result string: 6.98 µM (active)

----------
- Target Desc: Mannose-6-phosphate isomerase (Homo sapiens, UniProt P34949)
- Sequence (P34949 whole entry): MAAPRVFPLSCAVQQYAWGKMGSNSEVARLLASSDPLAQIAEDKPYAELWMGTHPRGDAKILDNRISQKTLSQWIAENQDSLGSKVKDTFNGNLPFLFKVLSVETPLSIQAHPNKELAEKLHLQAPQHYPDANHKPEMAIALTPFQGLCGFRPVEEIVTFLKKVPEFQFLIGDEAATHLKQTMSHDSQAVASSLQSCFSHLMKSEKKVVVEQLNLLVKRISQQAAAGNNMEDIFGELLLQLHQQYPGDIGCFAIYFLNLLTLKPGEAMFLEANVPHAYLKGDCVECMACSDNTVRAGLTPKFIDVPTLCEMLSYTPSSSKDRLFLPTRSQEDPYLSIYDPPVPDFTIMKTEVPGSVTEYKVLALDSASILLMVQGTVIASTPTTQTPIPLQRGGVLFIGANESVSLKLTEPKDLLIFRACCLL
- Assay Name: MPI inhibition at elevated mannose 6-phosphate – biochemical, fluorescence intensity, high mannose 6-phosphate, primary screen (AID 1220)
The source made the active and inactive calls.
Assay Metric: IC50

Consider the reported IC50 for these molecules:
Query string: So what does the record say about IC50 for `CC1=C/C(=N\OS(=O)(=O)c2ccccc2)C(C)=CC1=O` ?
Result string: 3.73 µM (active)

Query string: So what does the record say about IC50 for `Nc1nc2c(s1)CCc1c-2cnn1-c1ccccc1` ?
Result string: 1.42 µM (active)

Query string: So what does the record say about IC50 for `CC1=NOC(=O)/C1=C\c1ccc(-c2ccc(Cl)c(C(=O)O)c2)o1` ?
Result string: > 50 µM (not active)

Continuing:
Query string: So what does the record say about IC50 for `COc1ccc(-n2c(NC(=O)c3ccco3)c(C#N)c3nc4ccccc4nc32)cc1` ?
Result string: > 50 µM (not active)

Query string: So what does the record say about IC50 for `COc1cc(/C=C2\CC/C(=C\c3cc(OC)c(O)c(OC)c3)C2=O)cc(OC)c1O` ?
Result string: 24.7 µM (active)

Query string: So what does the record say about IC50 for `Oc1cc(O)c2sc(Nc3ccc(F)cc3)nc2n1` ?
Result string: > 50 µM (not active)

----------
Let's look at some compounds and their measured IC50.
- Target Desc: DNA dC->dU-editing enzyme APOBEC-3A (Homo sapiens)
- Sequence (P31941 whole entry): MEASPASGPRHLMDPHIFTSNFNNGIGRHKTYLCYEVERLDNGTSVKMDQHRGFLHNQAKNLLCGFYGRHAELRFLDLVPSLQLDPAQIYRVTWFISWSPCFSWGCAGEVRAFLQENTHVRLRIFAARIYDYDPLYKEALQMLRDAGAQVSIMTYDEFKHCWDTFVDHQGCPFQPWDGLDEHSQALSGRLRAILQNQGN
- Assay Name: Dose Response confirmation of small molecule APOBEC3A DNA Deaminase Inhibitors via a fluorescence-based single-stranded DNA deaminase assay. [Related pubchem assays (depositor defined):AID493011, AID493024]
- Assay type: functional
Calls of active or inactive are those of the source.

Consider the reported IC50 for these compounds:
Query string: So what does the record say about IC50 for `CCCCCCNC(=O)c1cc(-c2ccco2)nc2ccccc12` ?
Result string: 13.6 µM (active)

Query string: So what does the record say about IC50 for `COc1cccc(C(=O)N/N=C/c2ccc(Oc3ccc([N+](=O)[O-])cn3)c(OC)c2)c1` ?
Result string: 3.44 µM (active)

Query string: So what does the record say about IC50 for `C[N+](C)(C)CCOC(=O)C1(c2ccccc2)CCCC1` ?
Result string: 1.06 µM (active)

Then this compound:
Query string: So what does the record say about IC50 for `CCn1c2c(c(C)[n+]1CC)C(=O)CC(C)(C)C2` ?
Result string: 1.89 µM (active)
